Molecular target: MAGI2_3, Q86UL8
Sequence (Q86UL8 600-682): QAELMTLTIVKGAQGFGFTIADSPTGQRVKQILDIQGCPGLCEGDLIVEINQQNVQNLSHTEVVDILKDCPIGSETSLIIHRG
Assay: holdup assay
Set-up: key: below the threshold = too weak to quantify, mostly under pKd 3.1 to 4
Conditions: plain residues with an end cap or a label only (N-terminal biotin on a linker: ado-ado)
assayEndpoint: pKd

binder | pKd
DFKHTKSFII [JAM2, P57087] | below the threshold
KLQNPNQSVV [TYRP1, P17643] | below the threshold
EKPIDSETKM [SLC1A3, P43003] | below the threshold
SKQFDKNAYV [CLDN10, P78369] | below the threshold
KAEEKPPSKV [SCN4B, Q8IWT1] | 3.48
DYSNLRETDI [ADRA1D, P25100] | below the threshold
PLPPEEESWV [GAS2L2, Q8NHY3] | 4.13

// below: pKd requested for another binder
Dear colleague, I am looking for the recorded pKd of the following binder: EFKQTSSFLV [JAM1, Q9Y624]
3.54
